# Test system: EU-1
# EXPERIMENTAL DETAILS: WST cytotoxicity assay, cancer cell EU-1
# Type: cell-based, human
# EXPERIMENTAL PARAMETERS: Homo sapiens, EU-1, EU-1; no other cell line named in the cell; read-out: Cancer cell (EU-1) cytotoxicity IC50
As shown below, each of these compounds has a reported IC50 value.

COMPOUND	SYSTEM	OPERATOR SYMBOL	IC50, µM
Cc1ccc(NS(=O)(=O)c2ccc3c(c2)[C@H]2OCC[C@H]2[C@H](C2CCC(C(C)C)CC2)N3)cc1C (stereo partly drawn) [Compound 69L56]	EU-1	=	10.2
CC(=O)N1CCC([C@@H]2Nc3ccc(S(=O)(=O)Nc4ccc(C)c(C)c4)cc3C3OCC[C@H]32)CC1 (stereo partly drawn) [Compound 69L57]	EU-1	=	10.8
CC(C)C(=O)c1cccc(C2CC(=O)c3cc(S(=O)(=O)Nc4cccc(C#N)c4)ccc3N2)c1 (stereo not drawn) [Compound 69L155]	EU-1	=	1.45
Cc1ccc(NS(=O)(=O)c2ccc3c(c2)[C@H]2OCC[C@H]2[C@H](c2ccc(C(=O)O)cc2)N3)cc1C [Compound 69L5]	EU-1	>	50
Cc1ccc(N(C)S(=O)(=O)c2ccc3c(c2)[C@H]2OCC[C@H]2[C@@H](c2ccc(C(=O)C(C)C)cc2)N3)cc1C (stereo in doubt) [Compound 69L132]	EU-1	=	1.57
Cc1ccc(NS(=O)(=O)c2ccc3c(c2)[C@H]2OCC[C@H]2C(c2ccc(-n4ccccc4=O)cc2)N3)cc1C (stereo partly drawn) [Compound 69L15]	EU-1	=	17.9
